GI50: recorded values
Tested on: SF-268 CNS
Experiment: NCI tumour cell line growth inhibition, 48 h

# Compound, Readout Label, Value Observed
measured = [
    ("NC(=O)c1cc(S(=O)(=O)Nc2nnc(-c3ccccc3)c(-c3ccccc3)n2)c(SCc2ccccc2)cc1Cl", "GI50", "> 87.5 µM"),
    ("O=C1NC(=O)C(c2cccc([N+](=O)[O-])c2)=C1Nc1cc(Cl)c(O)c(Cl)c1", "GI50", "> 25 µM"),
    ("CC1=C(C(=O)Nc2ccc(Cl)c(Cl)c2)C(c2cccc(Oc3ccccc3)c2)NC(=O)N1 (stereo not drawn)", "GI50", "6.65 µM"),
    ("O=C(CSC1CCc2ccccc21)N/N=C/c1ccccc1O (stereo not drawn)", "GI50", "3.33 µM"),
    ("CCN1C(=O)N(CC)C2C1NN=c1s/c(=C3\\C(=O)N(CC(C)(C)C)c4ccccc43)c(=O)n12 (stereo not drawn)", "GI50", "4.8 µM"),
    ("CCCCCOc1ccc(/C=N/Nc2cc(C)nc3ccc(Br)cc23)cc1", "GI50", "1.97 µM"),
    ("COc1ccc(O)c(C(=O)c2ccc(C(=O)N[C@H]3CCCNC[C@@H]3NC(=O)c3ccncc3)cc2)c1F", "GI50", "1.75 µM"),
]

get_value(item= OCCCNc1nccc(-c2c(-c3ccc(F)cc3)nn3cc(C(F)(F)F)ccc23)n1 , readout=GI50) returns 16.3 µM
